Tested on: Clostridium perfringens
Experiment: In vitro antibacterial activity against Clostridium perfringens 615
Assay type: functional
quantity: MIC (µg/mL)
Write it as a number; the unit µg/mL goes unstated.

Guide cases for MIC, answers given:
C[C@@H](O)[C@H]1C(=O)N2C(C(=O)[O-])=C3COCC[C@@H]3[C@H]12.[K+] | 0.5
C[C@@H](O)[C@H]1C(=O)N2C(C(=O)[O-])=C3CCCO[C@@H]3[C@H]12.[K+] | 0.06
C[C@@H](O)[C@H]1C(=O)N2C(C(=O)[O-])=C3CCCC[C@H]3[C@H]12.[K+] | 1
CO[C@H]1CCC[C@H]2C1=C(C(=O)O)N1C(=O)[C@H]([C@@H](C)O)[C@@H]21 [SANFETRINEM] | 0.03
C[C@@H](O)[C@H]1C(=O)N2C(C(=O)[O-])=C3COCC[C@H]3[C@H]12.[K+] | 2
C[C@@H](O)[C@H]1C(=O)N2C(C(=O)[O-])=C3CCCO[C@H]3[C@H]12.[K+] | 1

Consider the additional compound presented here.
Under Clostridium perfringens: MIC value of `C[C@@H](O)[C@H]1C(=O)N2C(C(=O)[O-])=C3CCCC[C@@H]3[C@H]12.[K+]` ?
0.1

----------
System: Streptococcus pneumoniae
Test: In vitro antibacterial activity against Streptococcus pneumoniae 3512
Assay type: functional
quantity: MIC (µg/mL)
Write it as a number; the unit µg/mL goes unstated.

Guide cases for MIC, answers given:
C[C@@H](O)[C@H]1C(=O)N2C(C(=O)[O-])=C3CCCC[C@@H]3[C@H]12.[K+] | 0.06
C[C@@H](O)[C@H]1C(=O)N2C(C(=O)[O-])=C3CCCO[C@H]3[C@H]12.[K+] | 0.2
C[C@@H](O)[C@H]1C(=O)N2C(C(=O)[O-])=C3CCCC[C@H]3[C@H]12.[K+] | 0.5

Returns the measured MIC for the input molecule. Input: `C[C@@H](O)[C@H]1C(=O)N2C(C(=O)[O-])=C3COCC[C@H]3[C@H]12.[K+]`
0.1

Returns the measured MIC for the input molecule. Input: `C[C@@H](O)[C@H]1C(=O)N2C(C(=O)[O-])=C3COCC[C@@H]3[C@H]12.[K+]`
0.06

Returns the measured MIC for the input molecule. Input: `C[C@@H](O)[C@H]1C(=O)N2C(C(=O)[O-])=C3CCCO[C@@H]3[C@H]12.[K+]`
0.06
